Target: Voltage-gated inwardly rectifying potassium channel KCNH2 (Homo sapiens) (UniProt Q12809)
Sequence (Q12809 whole entry, looked up): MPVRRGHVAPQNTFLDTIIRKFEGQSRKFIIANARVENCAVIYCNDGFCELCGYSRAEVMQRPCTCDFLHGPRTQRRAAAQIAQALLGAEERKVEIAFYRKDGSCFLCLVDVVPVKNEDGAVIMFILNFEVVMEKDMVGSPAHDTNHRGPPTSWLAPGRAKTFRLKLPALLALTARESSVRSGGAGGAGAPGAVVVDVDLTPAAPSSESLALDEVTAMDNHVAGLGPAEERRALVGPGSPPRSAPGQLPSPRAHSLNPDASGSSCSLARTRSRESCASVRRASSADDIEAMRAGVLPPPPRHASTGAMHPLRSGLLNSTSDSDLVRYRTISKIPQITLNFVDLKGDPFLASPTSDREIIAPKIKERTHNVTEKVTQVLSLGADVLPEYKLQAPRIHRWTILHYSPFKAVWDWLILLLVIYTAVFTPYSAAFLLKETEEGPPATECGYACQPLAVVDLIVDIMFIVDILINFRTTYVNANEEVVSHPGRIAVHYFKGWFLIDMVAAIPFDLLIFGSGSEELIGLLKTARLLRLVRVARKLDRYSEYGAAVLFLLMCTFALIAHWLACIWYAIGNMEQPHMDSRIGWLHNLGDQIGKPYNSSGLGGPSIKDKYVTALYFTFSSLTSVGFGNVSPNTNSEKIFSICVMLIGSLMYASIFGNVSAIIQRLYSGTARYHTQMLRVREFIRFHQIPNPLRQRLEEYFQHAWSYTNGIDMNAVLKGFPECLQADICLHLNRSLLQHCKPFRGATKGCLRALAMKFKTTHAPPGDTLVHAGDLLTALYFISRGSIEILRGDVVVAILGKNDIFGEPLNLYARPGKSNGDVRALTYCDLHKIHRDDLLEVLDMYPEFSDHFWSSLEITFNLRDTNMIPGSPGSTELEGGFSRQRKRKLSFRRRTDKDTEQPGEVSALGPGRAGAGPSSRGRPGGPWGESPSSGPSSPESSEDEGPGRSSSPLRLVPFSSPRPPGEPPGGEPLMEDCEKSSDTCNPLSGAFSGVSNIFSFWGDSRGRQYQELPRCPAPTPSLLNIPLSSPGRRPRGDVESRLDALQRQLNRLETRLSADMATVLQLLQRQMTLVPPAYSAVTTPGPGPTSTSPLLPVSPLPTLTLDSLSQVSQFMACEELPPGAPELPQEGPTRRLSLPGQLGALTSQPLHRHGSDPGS
Experiment: qHTS Assay for Small Molecule Inhibitors of the Human hERG Channel Activity (AID 588834);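 further: lower thallium flux fluorescence means stronger hERG block; nearly all actives have a fitted effect of over 50% in size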
Conditions: U2OS BacMam hERG, FluxOR thallium flux fluorescence; series mostly up to 46.1 µM
Results filed as inconclusive are left out. The source made the active and inactive calls. The call rests on the fitted dose curve; in most records, active means well fitted inhibition curve with a large enough effect; inconclusive means small, poorly fitted or top-dose-only effect; inactive means flat fitted curve, though single readings scatter.
Answer with one of the outcomes active, inactive

(Q) Recorded call for C1CCC(NC2CCCCC2)CC1 ?
(A) inactive

(Q) Per the assay record, what outcome was assigned to c1ccc2sc(C3(N4CCCCC4)CCCCC3)cc2c1 ?
(A) active

(Q) Write down the call the test reported for this compound. Item: NC1CC1c1ccccc1 (centres undefined)
(A) inactive

(Q) Please indicate how the test categorized COc1ccc2c(c[n+](C)c3c4cc5c(cc4ccc23)OCO5)c1OC .
(A) inactive

(Q) Lab log entry: Clc1cnc(Oc2ccc(Oc3ncc(Cl)cc3Cl)cc2)c(Cl)c1 — outcome as called in the assay?
(A) inactive

(Q) In this assay, the call recorded for C[C@]12N[C@H](Cc3ccccc31)c1ccccc12 was what?
(A) inactive

(Q) Dear all, I need the recorded test outcome for COc1cc(C(O)CN)ccc1O (centres undefined) , thank you.
(A) inactive

(Q) Check the results log: what was the call for C[N+]1(C)C2CCC1CC(OC(=O)C(CO)c1ccccc1)C2 (centres undefined) ?
(A) inactive

(Q) Lab log entry: O=[N+]([O-])c1c2ccccc2cc2ccccc12 — outcome as called in the assay?
(A) inactive

(Q) Field: outcome | Entry: CCOP(=O)(NC(C)C)Oc1ccc(SC)c(C)c1 (centres undefined)
(A) inactive

(Q) Recorded test outcome, item NC(=NCCC[C@H](N)C(=O)O)N[N+](=O)[O-]
(A) inactive

(Q) How did this test come out for O=[N+]([O-])c1c(Cl)c(Cl)cc(Cl)c1Cl ?
(A) inactive

(Q) Record lookup: outcome of this test for COC(=O)c1cncn1C(C)c1ccccc1 (centres undefined) ?
(A) inactive

(Q) Look up the recorded call for CC(Cc1ccc(O)cc1)NCC(O)c1cc(O)cc(O)c1 (centres undefined) in this test.
(A) inactive

----------
Assay: qHTS of pediatric cancer cell lines to identify multiple opportunities for drug repurposing: Primary screen for A673 cells (AID 1347092); further: nearly all actives have a fitted effect of over 45% in size
Conditions: A673 Ewing sarcoma viability, CellTiter-Glo ATP luminescence, 48 h; series mostly up to 46 µM
Inconclusive results are not listed. The source made the active and inactive calls. Calls come from the whole dose curve; as a rule, active = well fitted cell-killing curve with a large enough effect; inconclusive = small, poorly fitted or top-dose-only effect; inactive = no such curve, though single readings can be large or run the other way.
Choose the fitting class; nothing outside YES for active, NO for inactive is accepted.

Worked examples follow.
molecule=CS(=O)(=O)c1ccc(C(=O)C2C(=O)CCCC2=O)c([N+](=O)[O-])c1 label_value=NO
molecule=CCN1C[C@]2(OC(=O)c3ccccc3NC(C)=O)CC[C@H](OC)[C@@]34[C@H]5CC6[C@@H](OC)C[C@](O)(C(C[C@@H]23)[C@@H]14)[C@@]5(O)[C@@H]6OC label_value=NO
molecule=O=[N+]([O-])c1ccc([As](=O)(O)O)cc1 label_value=NO
molecule="CC(C)NCC(O)c1ccc([N+](=O)[O-])cc1 (centres undefined)" label_value=NO
molecule=CCN(CC)C(=O)c1ccc(C2=CC3(CCNCC3)Oc3cccc(O)c32)cc1 label_value=NO
molecule=Cc1c(C(=O)c2cccc3ccccc23)c2cccc3c2n1[C@H](CN1CCOCC1)CO3 label_value=YES

(Q) # outcome recorded in this test, key = C[C@]12Cc3cn[nH]c3C[C@@H]1CC[C@@H]1[C@H]2CC[C@@]2(C)[C@H]1CC[C@]2(C)O
(A) YES

(Q) Please indicate how the test categorized O=C(O)C(Cl)Cl .
(A) NO

----------
Experiment: Quantitative High-Throughput drug screen in 47 multiple myeloma cell lines against the NCATS MIPE library collection: H1112_PLB cell viability assay (AID 1918967; further: nearly all actives have a fitted effect of over 30% in size)
Settings: H1112 myeloma cells viability, ATP luminescence, 48 h; series mostly up to 45.8 µM
Results filed as inconclusive are left out. Calls of active or inactive are those of the source. Calls follow the shape of the dose curve; as a rule, active = well fitted cell-killing curve with a large enough effect; inconclusive = small, poorly fitted or top-dose-only effect, or effect the other way; inactive = no such curve, though single readings can be large or run the other way.
Write down the outcome that applies. Available outcomes: active, inactive

Here's what some known entries look like.
compound=O=c1[nH]c2ccc(Cl)cc2c(N[C@@H]2CN3CCC2CC3)c1-c1nc2ccccc2[nH]1 label_value=active
compound=CN(C)NC(=O)CCC(=O)O label_value=inactive
compound=CCNC(=O)C[C@@H]1N=C(c2ccc(Cl)cc2)c2cc(OC)ccc2-n2c(C)nnc21 label_value=active
compound="CN1[C@H]2CC(O)C[C@H]1[C@H]1O[C@H]12 (stereo not given in full)" label_value=active
compound=Cc1c(C(=O)c2cccc3ccccc23)c2cccc3c2n1[C@H](CN1CCOCC1)CO3 label_value=active
compound=C[C@]12CCC(=O)C(O)=C1CC[C@@H]1[C@H]3CCC(=O)[C@@]3(C)CC[C@@H]12 label_value=inactive
compound=CC(C)(O)C=CC(=O)[C@](C)(O)[C@H]1[C@H](O)C[C@]2(C)[C@@H]3CC=C4[C@@H](C=C(O)C(=O)C4(C)C)[C@]3(C)C(=O)C[C@@]12C label_value=active
compound="COCC1(CO)C(=O)C2CCN1CC2 (stereo not given)" label_value=active
compound=O=S(=O)(F)Cc1ccccc1 label_value=inactive

Continue with the compound presented below.
(Q) Dear colleague, could you share the recorded outcome for CC[C@@]1(O)C(=O)OCc2c1cc1n(c2=O)Cc2cc3ccccc3nc2-1 when you have a moment?
(A) active

----------
Assay: qHTS of pediatric cancer cell lines to identify multiple opportunities for drug repurposing: Primary screen for SK-N-MC cells (AID 1347093)
Details: SK-N-MC viability, CellTiter-Glo luminescence, 48 h; series mostly up to 46 µM
Records with an inconclusive call do not appear. Active and inactive are the calls of the source. Calls come from the whole dose curve; as a rule, active = well fitted cell-killing curve with a large enough effect; inconclusive = small, poorly fitted or top-dose-only effect; inactive = no such curve, though single readings can be large or run the other way.
Outcomes you can answer with include only these: active, inactive

(Q) For this molecule, state the assay outcome: N#C[C@H](O[C@@H]1O[C@H](CO[C@@H]2O[C@H](CO)[C@H](O)[C@H](O)[C@H]2O)[C@H](O)[C@H](O)[C@H]1O)c1ccccc1
(A) active

----------
Test: Primary qHTS for inhibitors of nuclear receptor binding SET domain protein 2 (NSD2) in an RCH-ACV wild type WT cells (2C) (AID 1645877); further: nearly all actives have a fitted effect of over 70% in size
Conditions: RCH-ACV (leukaemia line) NSD2 WT (2C) viability, CellTiter-Glo, 72 h; series mostly up to 44.9 µM
Inconclusive results are not listed. Activity calls are given as the source filed them. The call rests on the fitted dose curve; in most records, active means well fitted inhibition curve with a large enough effect; inconclusive means small, poorly fitted or top-dose-only effect; inactive means no such curve, though single readings can be large or run the other way.
Result category, one only: active, inactive

Some solved cases for reference:
molecule=CC1=C(C(=O)O)N2C(=O)[C@@H](N)[C@H]2SC1 label_value=inactive
molecule="COc1cc([C@@H]2c3cc4c(cc3[C@@H](O)C3COC(=O)C32)OCO4)cc(OC)c1O (some centres undefined)" label_value=active

(Q) Would you mind telling me which call this test gave CC(=O)[O][Hg][c]1ccccc1 ?
(A) active

(Q) Test call, this molecule: O=C1C=CC[C@@H]2[C@H]3CCCN4CCC[C@@H](CN12)[C@@H]34
(A) inactive

(Q) Dear all, I need the recorded test outcome for CN[C@@H]1Cc2cccc3[nH]c(=O)n(c23)C1 , thank you.
(A) inactive

(Q) What classification did COc1ccc(N(C(=O)Oc2c(C)cccc2C)c2ccnc(Nc3ccc(N4CCN(C)CC4)cc3)n2)c(OC)c1 end up with in this test?
(A) active

(Q) Could you check what this test reported for Cc1ccc(Cl)c(O)c1 ?
(A) inactive

(Q) // outcome(item) with item = CC(C)N(CCNC(=O)CN1CCCC1=O)C(C)C
(A) inactive

(Q) Lab log entry: CC[C@@H](C(N)=O)N1CCCC1=O — outcome as called in the assay?
(A) inactive

----------
Assay: Inducers of the Endoplasmic Reticulum Stress Response (ERSR) in human glioma: Validation (AID 504836)
Settings: human glioma cells, ER stress response reporter; series mostly up to 38.3 µM
The source made the active and inactive calls. The call rests on the fitted dose curve; in most records, active means well fitted curve in the direction sought with a large enough effect; inconclusive means small, poorly fitted or top-dose-only effect, or effect the other way, or another doubt; inactive means no such curve, though single readings can be large or run the other way.
Form entry, call: pick from YES for active, NO for inactive

Some solved cases for reference:
compound=O=C(O)Cc1cnc[nH]1 label_value=NO
compound=C/C=C(/C)C(=O)O[C@H]1C(C)=C2[C@H]([C@@H]1OC(=O)CCCCCCC)[C@@](C)(OC(C)=O)C[C@H](OC(=O)CCC)[C@@]1(O)[C@H]2OC(=O)[C@@]1(C)O label_value=YES
compound="O=C(Cc1ccc(Cl)c(Cl)c1)N1CCCCC1CN1CCCC1 (centres undefined)" label_value=NO
compound=c1ccc(CCCN2CCN(CCOC(c3ccccc3)c3ccccc3)CC2)cc1 label_value=NO
compound=CCN(CC)CCn1c(=O)c(Cc2ccc(OC)cc2)nc2ccccc21 label_value=NO

(Q) Could you kindly confirm the outcome this assay logged for CN1C(=O)CC[C@H]1c1cccnc1 ?
(A) NO

(Q) Each compound tested received a call. Report the one for NC(=O)CN1CC(O)CC1=O (centres undefined) .
(A) NO

(Q) Hi, sorry to bother you, what did the test record for CC(C)c1ccc2c(c1)c(SC(C)(C)C)c(CC(C)(C)C(=O)O)n2Cc1ccc(Cl)cc1 ?
(A) NO

(Q) Please indicate how the test categorized CNCCc1ccc(O)c(O)c1 .
(A) NO
